# MEASURED_TARGET: recombinant human IL-13 (human, UniProt P35225 35-146)
# Sequence (P35225 35-146 limits assumed): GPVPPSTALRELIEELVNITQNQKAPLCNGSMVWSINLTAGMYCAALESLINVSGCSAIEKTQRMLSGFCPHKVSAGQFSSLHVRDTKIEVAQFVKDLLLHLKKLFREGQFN
# ASSAY_INFO: cell-based or functional assay
MEASURE: HEK-IL-13 [nM] (IC50, STAT6 reporter)

[[record]]
binder = "BDG38.086 (antibody, V domains shown) VH: QMQLVESGGGVVQPGRSLRLSCAASGFEFRTYGMHWVRQAPGKGLEWVGVIWYDGSNTHYADSVKGRFTITRDNSKNTLNLQMNSLRAEDTAVYYCVRAPQWYLTAEAFDLWGQGTMVTVSS VL: SYVLTQPPSVSVAPGQTARITCGGNLIGARLVHWYQQKPGQAPVLVVYDDSDRPSRIPERFSGSNIGNTATLTISDVEEGDEADYYCQVWDYSSNTYVFGGGTKLTVL"
recorded_result = "0.0174 nM"


Now examine the next entry.
Input line: Find the recorded HEK-IL-13 [nM] (IC50, STAT6 reporter) belonging to BDG38.075 (antibody, V domains shown, IgG1) VH: QMQLVESGGGVVQPGRSLRLSCAASGFAFRTYGMHWVRQAPGKGLEWVAVIWYDGSATHYADSVKGRFTITRDNSKNTLNLQMNSLRAEDTAVYYCVRAPQWYLSAEAFDLWGQGTMVTVSS VL: SYVLTQPPSVSVAPGETATITCGGNLIGAYLVHWYQQKPGQAPVLVIYDDVDRPARIPERFSGSNSGNTATLTISRVEAGDEADYYCQVWDHDTNTMVFGGGTKLTVL and report it.
Output line: 0.0691 nM
